# Measurement Protocol: label from the status in PepcDB records
Recorded Metric: protein production

INSERT INTO assay_data (macromolecule_sequence, test_result) VALUES
  ('MLELCSIASGSSGNCICVGTDDCHVLIDAGISGKKIENGLNEFDMTATDMHGILVTHEHIDHIAGLGVMARRYHMPIYATKATIGAIKCTKSVGNIDDELFHPIEAGVDFTIGDIEFEPLHISHDAADPVAYRFKNENHAMAVVTDLGTYDDALVSKLQNLDGLLLEANHDINMLQTGAYPYPLKRRIMGDSGHLSNERSGQLLCELLHDKFGSVILGHLSKENNYEKLAYEAVRLEVTMGDNPYKASDFPMYVAKRDRASDRIAVE', 'failed'),
  ('MNINENASQYIPHEAPMVFVDDLIEIFDQGALASLTIRPELLFCTAQGLPSWTSIELMAQTISAYSGRNGRQRGHTPRIGFLLGTRKLNLPVAFFELGSTLIIRIEQQYLHEGLGQFACEIEYQAHKISALLSVYEPTVDQDNKENT', 'failed'),
  ('MSQTLFWIAAACALAYLAMTARPASLMRSAVKTASVALLALMVLVSGGPVLLVLALALCALGDWLLSRETEATFMAGVGAFAAGHLAYVALFLTHPASDTGQLAAQWPLVAGLAALGLVMASLLAPRAGDLKGPVLAYVPIILGMGLAALTLPQAGVLAWVLPAAAAFIASDMILATEKFLLPPGHPALRLTPYLVWPLYWGAQMGFALALT', 'failed');
